// data source = patent US20140065163A1

- system-under-test: recombinant marmoset GM-CSF (Callithrix jacchus) (Callithrix jacchus)
- Sequence (chain, as listed by the source limits assumed, form in doubt): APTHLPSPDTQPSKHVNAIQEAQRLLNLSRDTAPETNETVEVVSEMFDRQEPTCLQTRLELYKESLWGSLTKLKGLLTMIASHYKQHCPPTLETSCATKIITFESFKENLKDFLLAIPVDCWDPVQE
- protocol-summary: cell-based or functional assay
# reported IC50, inhibition of marmoset GM-CSF induced TF-1 proliferation (1.9 nM); entries follow
Your answer should be a plain number; it is taken to be in nM.

query: Any idea what its IC50, inhibition of marmoset GM-CSF induced TF-1 proliferation (1.9 nM) is? The binder is MSB0010603 4K21 (4K21 hVH S56V-T62S hVL N28I-H34S-N53R-H93Y) (antibody, V domains shown) VH: EVQLVESGGGLVQPGGSLRLSCAASGFAFSAYDMSWVRQAPGKRLELVAYISSGGSVFYYPDSVKGRFTISRDNAKNSLYLQMNSLRAEDTAVYYCTRHLGFDYWGQGTLVTVSS VL: DIVMTQSPLSLPVTPGEPASISCRSSQSLVNSIGNTYLSWYLQKPGQSPQLLIYKVSRRFSGVPDRFSGSGSGTDFTLKISRVEAEDVGVYYCSQSTYVPPTFGQGTKVEIK
result: 0.7

query: Any idea what its IC50, inhibition of marmoset GM-CSF induced TF-1 proliferation (1.9 nM) is? The binder is MSB0010599 4K21 (4K21 hVH S55R-T62S hVL N28I-H34S-N53R-H93Y) (antibody, V domains shown) VH: EVQLVESGGGLVQPGGSLRLSCAASGFAFSAYDMSWVRQAPGKRLELVAYISSGGRSFYYPDSVKGRFTISRDNAKNSLYLQMNSLRAEDTAVYYCTRHLGFDYWGQGTLVTVSS VL: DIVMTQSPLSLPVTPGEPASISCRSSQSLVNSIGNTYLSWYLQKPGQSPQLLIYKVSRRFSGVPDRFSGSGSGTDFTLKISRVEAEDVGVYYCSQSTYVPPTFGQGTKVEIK
result: 0.9

query: Any idea what its IC50, inhibition of marmoset GM-CSF induced TF-1 proliferation (1.9 nM) is? The binder is MSB0010595 4K21 (4K21 hVH S56V-T62S hVL S27eY-N28I-H34S-N53R-H93Y) (antibody, V domains shown) VH: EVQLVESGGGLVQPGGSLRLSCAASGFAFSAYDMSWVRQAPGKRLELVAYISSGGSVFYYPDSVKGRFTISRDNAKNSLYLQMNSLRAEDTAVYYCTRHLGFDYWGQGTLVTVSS VL: DIVMTQSPLSLPVTPGEPASISCRSSQSLVNYIGNTYLSWYLQKPGQSPQLLIYKVSRRFSGVPDRFSGSGSGTDFTLKISRVEAEDVGVYYCSQSTYVPPTFGQGTKVEIK
result: 1.5

query: Any idea what its IC50, inhibition of marmoset GM-CSF induced TF-1 proliferation (1.9 nM) is? The binder is MSB0010602 4K21 (4K21 hVH S55K-T62S hVL S27eY-N28I-H34S-N53R-H93Y) (antibody, V domains shown) VH: EVQLVESGGGLVQPGGSLRLSCAASGFAFSAYDMSWVRQAPGKRLELVAYISSGGKSFYYPDSVKGRFTISRDNAKNSLYLQMNSLRAEDTAVYYCTRHLGFDYWGQGTLVTVSS VL: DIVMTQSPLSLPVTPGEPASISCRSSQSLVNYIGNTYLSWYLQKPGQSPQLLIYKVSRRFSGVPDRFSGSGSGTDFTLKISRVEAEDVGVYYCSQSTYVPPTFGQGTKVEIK
result: 1.3

query: Any idea what its IC50, inhibition of marmoset GM-CSF induced TF-1 proliferation (1.9 nM) is? The binder is MSB0010600 4K21 (4K21 hVH S55R-T62S hVL S27eY-N28I-H34S-N53R-H93Y) (antibody, V domains shown) VH: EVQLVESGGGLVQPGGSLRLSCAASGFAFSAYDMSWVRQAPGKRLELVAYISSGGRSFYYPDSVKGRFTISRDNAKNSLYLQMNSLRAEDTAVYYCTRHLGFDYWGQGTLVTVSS VL: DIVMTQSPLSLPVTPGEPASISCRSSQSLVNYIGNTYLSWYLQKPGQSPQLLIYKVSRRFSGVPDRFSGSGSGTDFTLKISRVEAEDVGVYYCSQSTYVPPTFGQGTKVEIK
result: 2

query: Any idea what its IC50, inhibition of marmoset GM-CSF induced TF-1 proliferation (1.9 nM) is? The binder is MSB0010601 4K21 (4K21 hVH S55K-T62S hVL N28I-H34S-N53R-H93Y) (antibody, V domains shown) VH: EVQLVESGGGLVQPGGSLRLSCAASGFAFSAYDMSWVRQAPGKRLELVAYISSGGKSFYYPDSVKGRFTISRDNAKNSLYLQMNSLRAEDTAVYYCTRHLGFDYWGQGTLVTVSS VL: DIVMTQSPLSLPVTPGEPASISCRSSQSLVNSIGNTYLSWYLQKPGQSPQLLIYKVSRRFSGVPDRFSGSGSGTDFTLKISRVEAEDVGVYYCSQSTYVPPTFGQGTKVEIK
result: 0.7
